Biological target: T1, human serum albumin (human, UniProt P02768 25-609)
T1 construct: mature; Bought purified serum albumin; also called HSA; Human albumin
Experiment: SPR, Fab captured; albumin taken as HSA;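 note: antibody held on a capture surface, albumin injected for 3 min association then dissociation followed, signals corrected using a blank reference flow cell and buffer-only injections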
pKd values for the binders below.
Scale for pKd: -log10 of concentration given in mol/L; no unit attached.

Recorded results for 2 binders are shown here.
>>> result("CA645 gL35gH5 Fab (Fab, V domains shown, Fab: human gamma1 CH1, human kappa (Km3); Kabat numbering) VH: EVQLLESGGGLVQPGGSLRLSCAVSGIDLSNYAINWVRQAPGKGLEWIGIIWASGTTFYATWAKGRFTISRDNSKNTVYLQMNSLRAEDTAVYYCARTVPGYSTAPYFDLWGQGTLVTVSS VL: DIQMTQSPSSVSASVGDRVTITCQSSPSVWSNFLSWYQQKPGKAPKLLIYEASKLTSGVPSRFSGSGSGTDFTLTISSLQPEDFATYYCGGGYVSISDTTFGGGTKVEIK")
8.25
>>> result("CA645 gL4gH40 Fab (Fab, V domains shown, Fab: human gamma1 CH1, human kappa (Km3); Kabat numbering) VH: EVQLLESGGGLVQPGGSLRLSCAVSGIDLSNYAINWVRQAPGKGLEWIGIIWASGTTFYATWAKGRFTISRDNSKNTVYLQMNSLRAEDTAVYYCARTVPTYSTAPYFDLWGQGTLVTVSS VL: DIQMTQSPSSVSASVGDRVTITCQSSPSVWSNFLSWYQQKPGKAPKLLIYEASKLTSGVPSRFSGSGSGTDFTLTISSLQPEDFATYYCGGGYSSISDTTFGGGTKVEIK")
8.19

Please turn your attention to the following entry.
Entry under test: CA645 gL10gH5 Fab (Fab, V domains shown, Fab: human gamma1 CH1, human kappa (Km3); Kabat numbering) VH: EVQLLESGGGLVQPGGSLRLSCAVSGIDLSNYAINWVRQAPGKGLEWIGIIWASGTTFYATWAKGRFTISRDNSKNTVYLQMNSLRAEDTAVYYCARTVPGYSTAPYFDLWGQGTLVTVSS VL: DIQMTQSPSSVSASVGDRVTITCQSSPAVWSNFLSWYQQKPGKAPKLLIYEASKLTSGVPSRFSGSGSGTDFTLTISSLQPEDFATYYCGGGYSSISDTTFGGGTKVEIK . Its pKd was 8.99
